# runDescription: Solubility evaluation of drugs (buffer solutions, 37° C., HPLC)
# Assay type: physicochemical
# recordedConditions: aqueous buffer, thermodynamic from solid; 100 mM phosphate buffer (pH 7), 37° C., 3 hours; read-out: Solubility pH 7
readout: solubility at 3 h

compound="COc1ccc2c(c1)c(CC(=O)O)c(C)n2C(=O)c1ccc(Cl)cc1 [Indomethacin, indomethacin, reference compound]" endpointresult="25 µg/mL"

"CCCCCCO[C@@H](C)c1cccc(-c2csc(NC(=O)c3cc(Cl)c(/C=C(\C)C(=O)O)c(Cl)c3)n2)c1OC" has a reported solubility at 3 h of ≤ 0.0004 µg/mL

---

# runDescription: Solubility evaluation of drugs (buffer solutions, 37° C., HPLC)
# Type: physicochemical
# recordedConditions: aqueous buffer, thermodynamic from solid; 100 mM carbonic acid buffer solution (pH 9), 37° C., 3 hours; read-out: Solubility pH 9
readout: solubility at 3 h (µg/mL)
Give just the numeric value; µg/mL need not be written.

"CCCCCCO[C@@H](C)c1cccc(-c2csc(NC(=O)c3cc(Cl)c(/C=C(\C)C(=O)O)c(Cl)c3)n2)c1OC" has a reported solubility at 3 h of 7.7

---

# runDescription: Solubility evaluation of drugs (buffer solutions, 37° C., HPLC)
# Assay type: physicochemical
# recordedConditions: aqueous buffer, thermodynamic from solid; 100 mM citrate buffer solution (pH 4), 37° C., 3 hours; read-out: Solubility pH 4
readout: solubility at 3 h (µg/mL)
Give just the numeric value; µg/mL need not be written.

COc1ccc2c(c1)c(CC(=O)O)c(C)n2C(=O)c1ccc(Cl)cc1 [Indomethacin, indomethacin, reference compound] has a reported solubility at 3 h of 0.5
